assay: Cytotoxicity assay (MTT), Vero cells; type: cell-based; settings: African green monkey; MTT; exposure 48 and 72 h; read-out: Vero CC50

- compound: "Nc1nc2c(ncn2COCCO)c(=O)[nH]1 [Acyclovir, reference compound]"
  CC50: "> 1000 µg/mL"
